- TEST_TARGET: Dfd (Deformed);Exd (Extradenticle) (Drosophila melanogaster?;Drosophila …, UniProt P07548;P40427 1-586;1-376, |)
- Sequence (P07548 whole entry, chain 1 of 2): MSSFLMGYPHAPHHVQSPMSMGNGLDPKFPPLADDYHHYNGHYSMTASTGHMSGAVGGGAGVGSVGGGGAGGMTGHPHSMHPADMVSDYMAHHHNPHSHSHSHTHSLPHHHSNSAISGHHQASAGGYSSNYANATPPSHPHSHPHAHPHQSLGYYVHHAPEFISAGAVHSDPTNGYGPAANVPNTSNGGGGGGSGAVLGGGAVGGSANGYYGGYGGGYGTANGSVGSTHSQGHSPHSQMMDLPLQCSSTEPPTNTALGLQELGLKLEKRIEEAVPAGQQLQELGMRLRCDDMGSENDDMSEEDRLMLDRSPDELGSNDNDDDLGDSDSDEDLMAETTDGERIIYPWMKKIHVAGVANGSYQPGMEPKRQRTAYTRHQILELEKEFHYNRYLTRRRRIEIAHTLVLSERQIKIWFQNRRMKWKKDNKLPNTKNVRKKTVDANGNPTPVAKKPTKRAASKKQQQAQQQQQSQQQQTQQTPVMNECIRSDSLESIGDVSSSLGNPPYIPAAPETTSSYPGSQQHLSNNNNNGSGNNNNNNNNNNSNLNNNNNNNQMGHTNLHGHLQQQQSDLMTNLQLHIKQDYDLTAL
- Sequence (P40427 whole entry, chain 2 of 2): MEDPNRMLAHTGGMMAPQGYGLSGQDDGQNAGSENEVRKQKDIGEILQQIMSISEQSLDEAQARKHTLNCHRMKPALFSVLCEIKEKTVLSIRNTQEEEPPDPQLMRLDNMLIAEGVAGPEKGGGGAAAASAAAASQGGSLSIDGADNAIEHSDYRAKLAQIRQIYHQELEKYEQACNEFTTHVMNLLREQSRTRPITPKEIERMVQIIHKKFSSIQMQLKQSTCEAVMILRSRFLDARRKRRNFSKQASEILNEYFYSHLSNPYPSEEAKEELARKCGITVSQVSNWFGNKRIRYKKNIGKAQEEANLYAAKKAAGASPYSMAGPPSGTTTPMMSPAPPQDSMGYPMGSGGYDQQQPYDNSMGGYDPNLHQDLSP
- ASSAY_EXPLANATION: EMSA; Hth presence not given; 20 mM HEPES pH 7.9, 1.4 mM MgCl2, 1 mM ZnSO4, 40 mM KCl, 0.1 mM EGTA, 5% glycerol, 10 mM DTT, 0.1% NP40, 200 ng poly(dI-dC), 3 ug BSA, 2 pmol Cy5 dsDNA in 30 ul, on ice 20 min; 1% agarose-TBE gel at 4 C
- CONDITION_PARAMETERS: protein: recombinant;recombinant; tags: GST (pGEX-6P);His-myc; copies: 1;1; label: 5'-Cy5; blunt
Items are presented alongside their recorded Kd.

Use the examples below as a reference point.
INSERT INTO measurements (binder, observed) VALUES
  ('oligo-D-1-mt (D-9mut-10wt) (dsDNA) DNA 1: TATAAAAGGCGGCAAATACTAATCTATTCTCGAT DNA 2: ATCGAGAATAGATTAGTATTTGCCGCCTTTTATA', '16.9 nM'),
  ('oligo-E-wt (site 11) (dsDNA) DNA 1: CTTCTTCGGGCACCTAATGACGCGCGTTCAACAT DNA 2: ATGTTGAACGCGCGTCATTAGGTGCCCGAAGAAG', '16.8 nM'),
  ('oligo-D-1-mt-2-H (D-9mut-10H) (dsDNA) DNA 1: TATAAAAGGCGGCATTGATTAATTAATTCTCGAT DNA 2: ATCGAGAATTAATTAATCAATGCCGCCTTTTATA', '8.16 nM');

Using the record for oligo-class-2-site (dsDNA) DNA 1: TTCAGAGCGAATGATTAATGATCGGTCAAG DNA 2: CTTGACCGATCATTAATCATTCGCTCTGAA , report its Kd.
9.12 nM
